For Acetylcholinesterase (Bos taurus, UniProt P23795), measured IC50 is reported for the entries below.
Quantity: IC50 (nM)

CC(C)C1=N[C@H]2CC=C3CC4C(=O)C[C@]5(C)[C@@H]([C@H](C)N(C)C)[C@H](O)C[C@@]5(C)[C@@H]4CC[C@H]3[C@]2(C)CO1 (some centres undefined)    756
CC(C)C1=N[C@H]2CC=C3C[C@H]4C(=O)C[C@]5(C)[C@@H]([C@H](C)N(C)C)[C@H](OC(=O)C(C)(C)C)C[C@@]5(C)[C@@H]4CC[C@H]3[C@]2(C)CO1    1380
CN[C@@H](C)[C@H]1[C@H](O)C[C@@]2(C)[C@@H]3CC[C@@H]4C(=CC[C@@H]5N=C(C(C)C)OC[C@]54C)C[C@H]3C(=O)C[C@]12C    2230
CC[C@H](C)C1=N[C@H]2CC=C3C[C@H]4C(=O)C[C@]5(C)[C@@H]([C@H](C)N(C)C)[C@H](O)C[C@@]5(C)[C@@H]4CC[C@H]3[C@]2(C)CN1    7350
